Below, each entry is listed with its recorded optical density.
targetUnderTest: human Fc (human)
experimentDescription: ELISA, negative control
Give just the number in OD; leave the unit off.

Annotate the binder 367_D03 (antibody, V domains shown) VH: EVQLLESGGGLVQPGGSLRLSCAASGFTFDSYSMNWVRQAPGKGLEWVSSINYNGGYTGYADSVKGRFTISRDNSKNTLYLQMNSLRAEDTAVYYCARGANWHDTHLDYWGQGTLVTVSS VL: DIQMTQSPSSLSASVGDRVTITCRASQSIITYLNWYQQKPGKAPKLLIYAATSRASGVPSRFSGSGSGTDFTLTISSLQPEDFATYYCQQSYDTPLTFGGGTKVEIK with its measured optical density.
0.29

Annotate the binder 369_F04 (antibody, V domains shown) VH: EVQLLESGGGLVQPGGSLRLSCAASGFTFSSYGMNWVRQAPGKGLEWVSGINYNGGYTSYADSVKGRFTISRDNSKNTLYLQMNSLRAEDTAVYYCARSATWHDTHLDYWGQGTLVTVSS VL: DIQMTQSPSSLSASVGDRVTITCRASQSIISYVNWYQQKPGKAPKLLIYAATSRHSGVPSRFSGSGSGTDFTLTISSLQPEDFATYYCQQSYDNPLTFGGGTKVEIK with its measured optical density.
0.369

Annotate the binder 376_E02 (antibody, V domains shown) VH: EVQLLESGGGLVQPGGSLRLSCAASGFTFSSYSMNWVRQAPGKGLEWVAGINYNGGYKGYADSVKGRFTISRDNSKNTLYLQMNSLRAEDTAVYYCARGANWHDTALDYWGQGTLVTVSS VL: DIQMTQSPSSLSASVGDRVTITCRASQSILSYVNWYQQKPGKAPKLVIYAATSRHSGVPSRFSGSGSGTDFTLTISSLQPEDFATYYCQQSDNTPLTFGGGTKVEIK with its measured optical density.
0.222

Annotate the binder 371_B04 (antibody, V domains shown) VH: EVQLLESGGGLVQPGGSLRLSCAASGFTFSSYSMNWVRQAPGKGLEWVSGINYNGGYKSYADSVKGRFTISRDNSKNTLYLQMNSLRAEDTAVYYCARGANWHDTALDYWGQGTLVTVSS VL: DIQMTQSPSSLSASVGDRVTITCRASQSILSYLNWYQQKPGKAPKLVIYAVTSRHSGVPSRFSGSGSGTDFTLTISSLQPEDFATYYCQQSYDSPLTFGGGTKVEIK with its measured optical density.
0.295

Annotate the binder 374_A09 (antibody, V domains shown) VH: EVQLLESGGGLVQPGGSLRLSCAASGFTFSSYSMNWVRQAPGKGLEWVSSINYNGGYKGYADSVKGRFTISRDNSKNTLYLQMNSLRAEDTAVYYCARGANWHDTHLDYWGQGTLVTVSS VL: DIQMTQSPSSLSASVGDRVTITCRASQSILTYVNWYQQKPGKAPKLLIYAATSLASGVPSRFSGSGSGTDFTLTISSLQPEDFATYYCQQSYDSPLTFGGGTKVEIK with its measured optical density.
0.231

Annotate the binder 371_A05 (antibody, V domains shown) VH: EVQLLESGGGLVQPGGSLRLSCAASGFTFSSYGMHWVRQAPGKGLEWVSNINYNGGYKSYADSVKGRFTISRDNSKNTLYLQMNSLRAEDTAVYYCARAATWHDTHLDYWGQGTLVTVSS VL: DIQMTQSPSSLSASVGDRVTITCRASQSILTYLNWYQQKPGKAPKLLIYAATSRASGVPSRFSGSGSGTDFTLTISSLQPEDFATYYCQQSDNLPLTFGGGTKVEIK with its measured optical density.
0.369

Annotate the binder 368_B09 (antibody, V domains shown) VH: EVQLLESGGGLVQPGGSLRLSCAASGFTFDSYGMNWVRQAPGKGLEWVSNINYNGGYKGYADSVKGRFTISRDNSKNTLYLQMNSLRAEDTAVYYCARGANWHDTHLDYWGQGTLVTVSS VL: DIQMTQSPSSLSASVGDRVTITCRASQSILSYLNWYQQKPGKAPKLLIYAATSRHSGVPSRFSGSGSGTDFTLTISSLQPEDFATYYCQQSYDTPLTFGGGTKVEIK with its measured optical density.
0.258
